- Test system: Escherichia coli TOP10
- method_description: shrunken log2 fold change of peptide-encoding DNA abundance (4.5 h post-induction vs induction); higher = less antimicrobial activity (less host growth inhibition)
- condition_summary: time post-induction: 4.5 h; library: site-saturation at positions 5, 18, 19, 20
shrunken log2 fold change by entry:

| primary_sequence | shrunken log2 fold change |
| --- | --- |
| RRIRYRPPRLPRPRPRPIIDPRP | -1 |
| RRIRRRPPRLPRPRPRPTVMPRP | 0.286 |
| RRIRCRPPRLPRPRPRPYTRPRP | -0.669 |

----------
- Test system: Escherichia coli TOP10;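 further: peptides expressed intracellularly from a pBAD plasmid library in pooled LB shake-flask culture, induced with 0.3% L-arabinose, DNA abundance read by NGS, three biological replicates, DESeq2 with apeglm shrinkage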
- method_description: shrunken log2 fold change of peptide-encoding DNA abundance (4.5 h post-induction vs induction); higher = less antimicrobial activity (less host growth inhibition)
- condition_summary: time post-induction: 4.5 h; library: site-saturation at positions 5, 18, 19, 20
shrunken log2 fold change by entry:

| primary_sequence | shrunken log2 fold change |
| --- | --- |
| RRIRIRPPRLPRPRPRPFGYPRP | -0.478 |
| RRIRSRPPRLPRPRPRPEVMPRP | 0.104 |
| RRIRARPPRLPRPRPRPRIPPRP | 0.0568 |
| RRIRERPPRLPRPRPRPRAWPRP | 0.195 |
| RRIRLRPPRLPRPRPRPKCQPRP | -0.319 |
| RRIRFRPPRLPRPRPRPDIVPRP | -0.0567 |
| RRIRVRPPRLPRPRPRPTNSPRP | -0.436 |
| RRIRQRPPRLPRPRPRPVEVPRP | -0.0922 |
| RRIRHRPPRLPRPRPRPQEFPRP | -0.00101 |
| RRIRSRPPRLPRPRPRPKNSPRP | -0.431 |
| RRIRQRPPRLPRPRPRPYWDPRP | -0.192 |
| RRIRIRPPRLPRPRPRPPKQPRP | -0.158 |
| RRIRARPPRLPRPRPRPIHRPRP | -0.26 |
| RRIRERPPRLPRPRPRPYNNPRP | -0.822 |
| RRIRYRPPRLPRPRPRPFVIPRP | -0.31 |
| RRIRGRPPRLPRPRPRPSAFPRP | 1.1 |
| RRIRTRPPRLPRPRPRPECWPRP | 0.53 |
| RRIRERPPRLPRPRPRPSEFPRP | -0.23 |
| RRIRMRPPRLPRPRPRPSHKPRP | -0.183 |
| RRIRFRPPRLPRPRPRPALMPRP | -0.0289 |
| RRIRGRPPRLPRPRPRPQGPPRP | 0.224 |
